# TESTED_SYSTEM: IRE1α (Homo sapiens, UniProt O75460, D688N)
# Construct: containing the kinase and RNase domains (KR, AA G547-L977, D688N); made in house; host or cells: Sf9 insect cells
# Sequence (O75460 547-977 D688N): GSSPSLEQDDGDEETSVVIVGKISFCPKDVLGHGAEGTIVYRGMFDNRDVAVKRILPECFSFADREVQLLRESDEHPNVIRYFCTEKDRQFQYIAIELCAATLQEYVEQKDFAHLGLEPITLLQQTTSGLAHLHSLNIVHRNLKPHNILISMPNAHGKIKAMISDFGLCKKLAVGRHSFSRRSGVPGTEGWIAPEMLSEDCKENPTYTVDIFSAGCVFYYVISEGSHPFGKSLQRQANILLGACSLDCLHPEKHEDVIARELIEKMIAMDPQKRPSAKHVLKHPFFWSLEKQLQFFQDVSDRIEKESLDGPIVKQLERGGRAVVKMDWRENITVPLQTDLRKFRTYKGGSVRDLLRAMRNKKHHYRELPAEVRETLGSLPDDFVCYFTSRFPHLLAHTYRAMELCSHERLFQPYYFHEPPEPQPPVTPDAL
# ASSAY_OVERVIEW: IRE1α TR-FRET competition binding assay (HTRF)
# TEST_SETTINGS: His-tagged IRE1α kinase dead construct (KR, AA G547-L977, D688N); Alexa fluor 647-labeled ATP competitive probe 2 nM; read-out: IRE1α (alpha) HTRF (IC50)
Counter-ions that a name gives are not always drawn.
PROPERTY_LABEL: IC50 (nM)

// known answers, use as guide
>>> experimental_result("O=S(=O)(Cc1ccccc1)Nc1c(F)cc(-c2ccc3nc(N[C@@H]4CNC[C@@H](F)C4)ncc3c2)cc1F")
0.51
>>> experimental_result("O=S(=O)(Cc1ccccc1)Nc1ccc(-c2ccc3nc(N[C@H]4CCCNC4)ncc3c2)cc1F")
11
>>> experimental_result("O=S(=O)(Cc1ccccc1)Nc1ccc(F)c(-c2ccc3nc(N[C@H]4CCCNC4)ncc3c2)c1")
79
>>> experimental_result("O=S(=O)(Cc1ccccc1)Nc1c(F)cc(-c2ccc3nc(N[C@H]4CCCNC4)ncc3c2)c(F)c1F")
0.65
>>> experimental_result("O=S(=O)(Cc1ccccc1)Nc1ccc(Cl)c(-c2ccc3nc(N[C@H]4CCCNC4)ncc3c2)c1F")
30
>>> experimental_result("O=S(=O)(Cc1ccccc1)Nc1ccc(-c2ccc3nc(N[C@H]4CCCNC4)ncc3c2)c(F)c1F")
0.57

(A) CCc1cc(-c2ccc(NS(=O)(=O)CCC(F)(F)F)c(F)c2)cc2cnc(N[C@H]3CC[C@H](N(C)C)CC3)nc12
(B) O=S(=O)(Cc1ccccc1)Nc1ccc(F)c(-c2ccc3nc(N[C@H]4CCCNC4)ncc3c2)c1F
Task: Looking only at measured IC50, which entry is lower, A or B ? Respond using the label that marks the chosen record.
Result: A

(P) CCc1cc(-c2ccc(NS(=O)(=O)Cc3ccccc3)cc2F)cc2cnc(N[C@@H]3CNC[C@@H](F)C3)nc12 [Compound 1016, Formate]
(Q) Cc1cc(NS(=O)(=O)Cc2ccccc2)c(F)c(F)c1-c1ccc2nc(N[C@H]3CCCNC3)ncc2c1
(R) O=S(=O)(Cc1ccccc1)Nc1cc(F)c(-c2ccc3nc(N[C@H]4CCCNC4)ncc3c2)c(F)c1F [Compound 1014, hydrochloride]
(S) CCc1cc(-c2ccc(NS(=O)(=O)Cc3ccccc3)c(F)c2)cc2cnc(N[C@@H]3CNC[C@@H](F)C3)nc12
(T) O=S(=O)(Cc1ccccc1)Nc1cccc(-c2ccc3nc(N[C@H]4CCCNC4)ncc3c2)c1F
Task: Order field: IC50 | Direction: descending (largest first) Arrange the labels as the request states and list them.
Result: T, Q, R, P, S
(T: 100 nM, Q: 4.9 nM, R: 2.1 nM, P: 0.46 nM, S: 0.18 nM)
